max. MFI reference
# target-under-test: full-length H5 A/Vietnam/1203/2004 HA expressed on 293T cells (influenza A virus A/Vietnam/1203/2004 (H5N1))
# test-protocol: flow cytometry, HA-expressing 293T
Could you give me the number in MFI? Just the number is fine.

Field: example entries. Status: answers known.
{"columns": ["binder", "unit-of-measure", "value-measured"],
 "data": [
  ["P44 (antibody, V domains shown) VH: EVQLVESGGGLVQPGGSLRLSCAASGFTIDGWWIHWVRQAPGKGLEWVAGIWPFGGFTSYADSVKGRFTISADTSKNTAYLQMNSLRAEDTAVYYCARSYSGYSGDYWGQGTLVTVSS VL: DIQMTQSPSSLSASVGDRVTITCRASQDVNNNVAWYQQKPGKAPKLLIYWSSSLYSGVPSRFSGSGSGTDFTLTISSLQPEDFATYYCQQYYNFPVTFGQGTKVEIKR", "MFI", 188],
  ["S07 (antibody, V domains shown) VH: EVQLVESGGGLVQPGGSLRLSCAASGFTINSSGIHWVRQAPGKGLEWVASIGPSWGSTYYADSVKGRFTISADTSKNTAYLQMNSLRAEDTAVYYCARFGIGDIDVMDYWGQGTLVTVSS VL: DIQMTQSPSSLSASVGDRVTITCRASQDVWGYVAWYQQKPGKAPKLLISYASFLYSGVPSRFSGSGSGTDFTLTISSLQPEDFATYYCQQYFNWPVTFGQGTKVEIKR", "MFI", 863],
  ["S06 (antibody, V domains shown) VH: EVQLVESGGGLVQPGGSLRLSCAASGFTIGGGWIHWVRQAPGKGLEWVAFIGPYGGSTFYADSVKGRFTISADTSKNTAYLQMNSLRAEDTAVYYCARFNFGFWNHMDYWGQGTLVTVSS VL: DIQMTQSPSSLSASVGDRVTITCRASQDVSSWVAWYQQKPGKAPKLLIYGTTFLHSGVPSRFSGSGSGTDFTLTISSLQPEDFATYYCQQYYNGPLTFGQGTKVEIKR", "MFI", 249],
  ["S29 (antibody, V domains shown) VH: EVQLVESGGGLVQPGGSLRLSCAASGFTISDYWIHWVRQAPGKGLEWVASIWPSGGYTYYADSVKGRFTISADTSKNTAYLQMNSLRAEDTAVYYCARFNWIVGHYMDYWGQGTLVTVSS VL: DIQMTQSPSSLSASVGDRVTITCRASQDVFGGVAWYQQKPGKAPKLLIYWSSWLYSGVPSRFSGSGSGTDFTLTISSLQPEDFATYYCQQYYDGPITFGQGTKVEIKR", "MFI", 367]
]}

Sample S40 (antibody, V domains shown) VH: EVQLVESGGGLVQPGGSLRLSCAASGFTIGDFGIHWVRQAPGKGLEWVAGIWPFGGYTYYADSVKGRFTISADTSKNTAYLQMNSLRAEDTAVYYCARFVNWDGDYMDYWGQGTLVTVSS VL: DIQMTQSPSSLSASVGDRVTITCRASQDVGFYVAWYQQKPGKAPKLLISWSSYLYSGVPSRFSGSGSGTDFTLTISSLQPEDFATYYCQQYYNYPLTFGQGTKVEIKR — what was its max. MFI? 724

Measured values drawn from patent US20210070843A1 for this set.
